- tested.target: T1, S. pombe Dcp1:Dcp2RD decapping complex (S. pombe, UniProt Q9P805;O13828)
- T1 sequence 1: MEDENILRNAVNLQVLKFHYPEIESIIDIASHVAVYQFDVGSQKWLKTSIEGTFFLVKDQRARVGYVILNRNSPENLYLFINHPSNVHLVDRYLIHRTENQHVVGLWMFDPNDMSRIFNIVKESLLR
- T1 sequence 2: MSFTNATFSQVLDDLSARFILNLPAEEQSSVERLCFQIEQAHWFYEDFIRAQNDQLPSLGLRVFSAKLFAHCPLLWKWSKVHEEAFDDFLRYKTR
- experiment.notes: NMR titration
pKd: −log10 of the molar value.
The binders listed here are annotated with their pKd.
experimental.readout: pKd

> print(dat)
                                     binder  measured.value
1  APSDLATPQPSTFPQPPVESHSSFDIKQKILHLLNEGNEPKSPI (domain or fragment) [S. pombe Dcp2 C-terminal region (269–312)]            3.51
2  VSQGTDSRLVTKPTSTFPSPPSPPSSSVWNKREH [S. pombe Xrn1 (1224–1257)]            3.19
